meta.source: ChEMBL document CHEMBL1137670

# Tested on: Escherichia coli
# experimental.details: Antimicrobial activity against Escherichia coli DH5alpha expressing pIP19 containing Aeromonas caviae A324R metallo-beta-lactamase blaIMP-19 gene by broth dilution method
# Type: functional
Values of MIC strictly less than 500 µg/mL map to Yes, and values of at least 500 µg/mL map to No.

# compound, study.target, group
records = [
    ("C[C@@H](O)[C@H]1C(=O)N2C(C(=O)O)=C(SCCNC=N)C[C@H]12 [IMIPENEM ANHYDROUS]", "Escherichia coli", "Yes"),
    ("CCN1CCN(C(=O)N[C@@H](C(=O)N[C@@H]2C(=O)N3[C@@H]2SC(C)(C)[C@@H]3C(=O)O)c2ccccc2)C(=O)C1=O", "Escherichia coli", "Yes"),
    ("O=C(O)[C@H]1/C(=C/CO)O[C@@H]2CC(=O)N21", "Escherichia coli", "Yes"),
    ("CC1(C)S[C@@H]2[C@H](NC(=O)[C@H](C(=O)O)c3ccsc3)C(=O)N2[C@H]1C(=O)O", "Escherichia coli", "No"),
    ("C[C@H]1[C@H](NC(=O)/C(=N\\OC(C)(C)C(=O)O)c2csc(N)n2)C(=O)N1S(=O)(=O)O", "Escherichia coli", "Yes"),
]
